# Tested on: MV-4-11 (human, Acute Myeloid Leukemia cell line) cells
# assay_text: Cell growth inhibition assay, GI50 of MV-4-11
# Format: cell-based
# stated_conditions: Homo sapiens, MV4-11, 72 h, MV-4-11 cells
Entries whose GI50 is below 8 nM take MET; entries at or above 8 nM take NOT MET.

[
  {
    "compound": "C=CCN1CC(=O)N2[C@@H](Cc3ccc(O)cc3)C(=O)N(Cc3cccc4c(C(=O)N5CCN6CCN(CC7CCCCC7)CC6C5)cn(C)c34)C[C@@H]2N1C(=O)NCc1ccccc1 (stereo partly shown)",
    "qualitative_label": "MET"
  },
  {
    "compound": "C=CCN1CC(=O)N2C(CN(Cc3cccc4c(C(=O)Nc5ccc(NCCCO)nc5)cn(C)c34)C(=O)[C@@H]2Cc2ccc(O)cc2)N1C(=O)NCc1ccccc1 (stereo partly shown)",
    "qualitative_label": "NOT MET"
  },
  {
    "compound": "C=CCN1CC(=O)N2[C@@H](Cc3ccc(O)cc3)C(=O)N(Cc3cccc4c(C(=O)Nc5ccc(N6CC(N7CCC(OC)CC7)C6)nc5)cn(C)c34)C[C@@H]2N1C(=O)NCc1ccccc1",
    "qualitative_label": "MET"
  },
  {
    "compound": "C=CCN1CC(=O)N2[C@@H](Cc3ccc(O)cc3)C(=O)N(Cc3cccc4c(C(=O)Nc5ccc(N6CC(O)C6)nc5)cn(C)c34)C[C@@H]2N1C(=O)NCc1ccccc1",
    "qualitative_label": "NOT MET"
  },
  {
    "compound": "C=CCN1CC(=O)N2[C@@H](Cc3ccc(O)cc3)C(=O)N(Cc3cccc4c(C(=O)N5CCN(CCOC)CC5)cn(C)c34)C[C@@H]2N1C(=O)NCc1ccccc1",
    "qualitative_label": "NOT MET"
  },
  {
    "compound": "C=CCN1CC(=O)N2[C@@H](Cc3ccc(O)cc3)C(=O)N(Cc3cccc4c(-c5ccc(C(=O)NNCc6ccccc6)cc5)cn(C)c34)C[C@@H]2N1C(=O)NCc1ccccc1",
    "qualitative_label": "MET"
  },
  {
    "compound": "C=CCN1CC(=O)N2[C@@H](Cc3ccc(O)cc3)C(=O)N(Cc3cccc4c(-c5ccc(NC(=O)c6ccc(CN(C)C)cc6)cc5)cn(C)c34)C[C@@H]2N1C(=O)NCc1ccccc1",
    "qualitative_label": "MET"
  },
  {
    "compound": "C=CCN1CC(=O)N2[C@@H](Cc3ccc(O)cc3)C(=O)N(Cc3cccc4c(C(=O)N5CCN(c6ccc(O)cc6)CC5)cn(C)c34)C[C@@H]2N1C(=O)NCc1ccccc1",
    "qualitative_label": "NOT MET"
  },
  {
    "compound": "C=CCN1CC(=O)N2[C@@H](Cc3ccc(O)cc3)C(=O)N(Cc3cccc4c(-c5cccc(C(=O)NCc6ccccc6)c5)cn(C)c34)C[C@@H]2N1C(=O)NCc1ccccc1",
    "qualitative_label": "MET"
  },
  {
    "compound": "C=CCN1CC(=O)N2[C@@H](Cc3ccc(O)cc3)C(=O)N(Cc3cccc4c(-c5ccc(NC(=S)NC(=O)OCC)nc5)cn(C)c34)C[C@@H]2N1C(=O)NCc1ccccc1",
    "qualitative_label": "NOT MET"
  }
]
